Numbers sourced from patent US12258328B2.

- assayed.target: EGFR L858R/T790M/C797S (Homo sapiens, UniProt P00533, C797S/L858R/T790M)
- Sequence (P00533 25-1210 T790M/C797S/L858R): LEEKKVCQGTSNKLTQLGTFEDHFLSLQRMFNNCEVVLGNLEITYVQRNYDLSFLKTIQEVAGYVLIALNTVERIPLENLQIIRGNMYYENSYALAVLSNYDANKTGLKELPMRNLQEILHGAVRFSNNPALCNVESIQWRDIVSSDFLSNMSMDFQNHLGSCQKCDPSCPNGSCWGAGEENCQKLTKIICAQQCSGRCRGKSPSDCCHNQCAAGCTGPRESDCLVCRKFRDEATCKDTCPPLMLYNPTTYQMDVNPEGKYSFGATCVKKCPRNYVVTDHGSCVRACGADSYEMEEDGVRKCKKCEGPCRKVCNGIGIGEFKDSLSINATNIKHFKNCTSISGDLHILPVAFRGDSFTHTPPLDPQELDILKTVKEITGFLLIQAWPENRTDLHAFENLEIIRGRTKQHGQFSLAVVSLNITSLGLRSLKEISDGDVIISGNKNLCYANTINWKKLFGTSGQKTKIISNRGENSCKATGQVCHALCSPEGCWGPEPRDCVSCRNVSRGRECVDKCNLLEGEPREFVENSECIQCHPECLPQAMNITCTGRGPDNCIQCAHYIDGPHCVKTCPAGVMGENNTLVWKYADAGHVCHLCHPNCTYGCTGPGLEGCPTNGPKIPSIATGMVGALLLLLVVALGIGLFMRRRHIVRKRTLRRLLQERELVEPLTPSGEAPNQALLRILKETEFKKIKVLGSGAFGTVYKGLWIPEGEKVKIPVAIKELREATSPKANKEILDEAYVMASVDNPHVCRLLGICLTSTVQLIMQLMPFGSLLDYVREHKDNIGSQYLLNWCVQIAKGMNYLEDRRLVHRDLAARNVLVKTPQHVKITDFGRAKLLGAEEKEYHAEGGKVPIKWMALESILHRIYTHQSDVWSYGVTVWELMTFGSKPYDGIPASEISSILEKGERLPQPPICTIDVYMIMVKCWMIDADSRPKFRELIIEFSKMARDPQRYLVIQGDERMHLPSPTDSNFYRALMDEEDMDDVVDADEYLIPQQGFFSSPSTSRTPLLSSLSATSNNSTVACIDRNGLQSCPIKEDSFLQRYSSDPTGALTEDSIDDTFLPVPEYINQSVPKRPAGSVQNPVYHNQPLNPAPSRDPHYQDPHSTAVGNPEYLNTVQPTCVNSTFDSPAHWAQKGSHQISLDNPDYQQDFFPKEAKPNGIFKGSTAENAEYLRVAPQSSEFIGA
- assay.notes: Biochemical EGFR kinase assay (Lance Ultra TR-FRET), triple mutant L858R/T790M/C797S
- protocol.conditions: IC50 L858R/T790M/C797S, 100 μM ATP
measure.name: IC50 (nM)

Worked examples, 2 compounds total:
smiles.str	units.of.measure	test.result
CN1CCN(C(=O)c2ccc(-c3cnc(Nc4ccnc(-c5cnn(S(=O)(=O)C6CC6)c5)n4)cc3N[C@H]3CC[C@@](C)(O)CC3)nc2)CC1	nM	0.3
CN1CCC(Oc2cccc(-c3cnc(Nc4ccnc(-c5cnn(S(=O)(=O)C6CC6)c5)n4)cc3N[C@H]3CC[C@@](C)(O)CC3)n2)CC1	nM	0.3

P. C[C@]1(O)CC[C@@H](Nc2cc(Nc3ccnc(-c4cnn(S(=O)(=O)C5CC5)c4)n3)ncc2-c2ccc(CC(F)(F)F)cn2)CC1
Q. CC(C)(O)[C@H]1CC[C@@H](Nc2cc(Nc3ccnc(-c4cnn(S(=O)(=O)C5CC5)c4)n3)ncc2-c2ccc(CC(F)(F)F)cn2)CC1
R. C[C@]1(O)CC[C@@H](Nc2cc(Nc3ccnc(-c4cnn(S(=O)(=O)C5CC5)c4)n3)ncc2-c2cc(OCCN3CCOCC3)ccn2)CC1
S. CN(C)C[C@H]1CC[C@@H](Nc2cc(Nc3ccnc(-c4cnn(S(=O)(=O)C5CC5)c4)n3)ncc2-c2cc(NC3CC(F)(F)C3)ccn2)CC1
Query :: Rank items: key IC50, increasing. # the answer lists labels in the order requested
Result :: R, S, P, Q
